Measured values drawn from patent US7138361B2 for this set.

Test system: giant foxtail (Setaria faberii)
test_name: Test C preemergence
Assay type: in vivo
test_context: Rate 62 g/ha; scale 0 to 100, 0 no effect, 100 complete control
test_readout: Plant response rating, Foxtail, Giant
// no unit string in output, number only

As a guide, the following entries are already answered.
*Q* # Plant response rating, Foxtail, Giant lookup, item CC(C)(C)c1ccn(C2CCN(c3cccc(OC(F)F)c3)C2=O)n1 (stereo not drawn) [Compound 76]
*A* 100

*Q* Given the entry CC(C)(C)c1ccn(C2SCN(c3cccc(OC(F)(F)F)c3)C2=O)n1 (stereo not drawn) [Compound 30] , report its measured Plant response rating, Foxtail, Giant.
*A* 80

*Q* Recorded Plant response rating, Foxtail, Giant of CC(C)(C)c1ccn(C2CCN(c3cccc(OC(F)(F)F)c3)C2=O)n1 (stereo not drawn) [Compound 49] , please.
*A* 0

*Q* Return reported Plant response rating, Foxtail, Giant; argument: CCC(C)c1ccn(C2CCN(c3ccc(C)c(OC)c3)C2=O)n1 (stereo not drawn) [Compound 80]
*A* 0

*Q* Name the reported Plant response rating, Foxtail, Giant value associated with the compound CCC(C)c1ccn(C2OCN(c3cccc(OC(F)(F)F)c3)C2=O)n1 (stereo not drawn) [Compound 67]
*A* 100

*Q* Entry O=C1C(n2ccc(C3CCC3)n2)SCN1c1cccc(OC(F)F)c1 (stereo not drawn) [Compound 45] : reported Plant response rating, Foxtail, Giant = ?
*A* 30

*Q* Value lookup for Plant response rating, Foxtail, Giant; key = CCC(CC)c1ccn(C2CCN(c3ccc(C)c(OC)c3)C2=O)n1 (stereo not drawn) [Compound 81]
*A* 90

*Q* Reported Plant response rating, Foxtail, Giant, compound CC1(c2ccn(C3OCN(c4cccc(C(F)(F)F)c4)C3=O)n2)CC1 (stereo not drawn) [Compound 62] : ____
*A* 0

// next entry
*Q* State the recorded Plant response rating, Foxtail, Giant for this entry: COc1cc(N2CCC(n3ccc(C(C)(C)C)n3)C2=O)ccc1C (stereo not drawn) [Compound 42]
*A* 50
